- Tested on: CCRF-CEM
- experimental.protocol: Cytotoxicity against human CEM cells assessed as growth inhibition by CellTiter 96 non-radioactive cell proliferation colorimetric assay
- Type: cell-based
- assay.context: ccrf-cem
reported.property: CC50

CC1=C(I)C(c2ccc(F)cc2Cl)N=C(c2ccccn2)N1 (configuration not stated)	74 µM
CC1(C)CC(=O)C2=C(C1)NC(c1cccnc1)=NC2c1ccc(F)cc1Cl (racemic)	> 100 µM
COC(=O)C1=C(C)NC(c2ccccn2)=NC1Cc1ccccc1 (configuration not stated)	61 µM
COC(=O)c1c(Cc2ccc(F)cc2Cl)nc(-c2ccccn2)nc1CN1CCOCC1	11 µM
CCOP(=O)(CC1=C(C(=O)OC)C(c2ccc(F)cc2Cl)N=C(c2ccccn2)N1)OCC (configuration not stated)	15 µM
CC1(C)CC(=O)c2c(Cc3ccccc3)nc(-c3ccccn3)nc2C1	21 µM
Fc1ccc(C2N=C(c3ccccn3)NC(CN3CCOCC3)=C2I)c(Cl)c1 (configuration not stated)	11 µM

Origin of measurements: ChEMBL document CHEMBL4000234
